Attribution: patent US8937084B2

# SYSTEM UNDER TEST: recombinant human kappa opioid receptor (κ) (Homo sapiens (Human), UniProt P41145)
# PROTOCOL NOTES: κ-opioid receptor radioligand dose-displacement binding assay ([3H]-U69,593)
Exercise: for every item that follows, state its recorded log10 Ki.
Base-10 log of Ki, unit nM.

Sample answers from the record:
O=C1C[C@]23CCN(CC4CC4)[C@H](Cc4ccc(O)cc42)C3=CN1Cc1ccc(O)cc1; 0.10
Oc1ccc(CN2CC[C@]34CCN(CC5CC5)[C@H](Cc5ccc(O)cc53)[C@@H]4C2)cc1; -0.01
O=C1C[C@]23CCN(CC4CC4)[C@H](Cc4ccc(O)cc42)[C@@H]3CN1; -0.74
NC(=O)CN1C[C@H]2[C@H]3Cc4ccc(O)cc4[C@@]2(CCN3CC2CC2)CC1=O; -0.26
COc1ccc(CN2CC[C@]34CCN(CC5CC5)[C@H](Cc5ccc(OC)cc53)[C@@H]4C2)cc1; 2.31
O=C1C[C@]23CCN(CC4CC4)[C@H](Cc4ccc(O)cc42)[C@@H]3CN1Cc1ccc(O)cc1; 0.80
C[C@H](N)C(=O)N1CC[C@]23CCN(CC4CC4)[C@H](Cc4ccc(O)cc42)[C@@H]3C1; -1.05
NC(=O)CN1CC[C@]23CCN(CC4CC4)[C@H](Cc4ccc(O)cc42)[C@@H]3C1; -0.59
O=C(O)CN1CC[C@]23CCN(CC4CC4)[C@H](Cc4ccc(O)cc42)[C@@H]3C1; 0.40
Oc1ccc2c(c1)[C@@]13CCNC[C@H]1[C@@H](C2)N(CC1CC1)CC3; -0.68

# per-item lookup of log10 Ki; items listed below
1. COc1ccc2c(c1)[C@]13CCN(CC4CC4)[C@H](C2)[C@@H]1CNC(=O)C3
2. COc1ccc2c(c1)[C@@]13CCNC[C@H]1[C@@H](C2)N(CC1CC1)CC3
3. O=C(O)CN1C[C@H]2[C@H]3Cc4ccc(O)cc4[C@@]2(CCN3CC2CC2)CC1=O

Key:
1: 0.77; 2: 1.57; 3: 0.61

###

# SYSTEM UNDER TEST: μ-opioid receptor (Homo sapiens (Human))
# PROTOCOL NOTES: μ-opioid receptor [35S]GTPγS functional assay, HEK-293 or CHO cells
# Assay type: biochemical
# TEST PARAMETERS: relative to DAMGO
# label = Y if Emax < 30% else N

A selection of reference data follows.
O=C1C[C@]23CCN(CC4CC4)[C@H](Cc4ccc(O)cc42)[C@@H]3CN1; Y
C[C@H](N)C(=O)N1CC[C@]23CCN(CC4CC4)[C@H](Cc4ccc(O)cc42)[C@@H]3C1; N
O=C(O)CN1C[C@H]2[C@H]3Cc4ccc(O)cc4[C@@]2(CCN3CC2CC2)CC1=O; Y
Oc1ccc(CN2CC[C@]34CCN(CC5CC5)[C@H](Cc5ccc(O)cc53)[C@@H]4C2)cc1; N

Exercise: Would you kindly verify if Emax of COc1ccc(CN2C=C3[C@H]4Cc5ccc(OC)cc5[C@@]3(CCN4CC3CC3)CC2=O)cc1 is strictly less than 30%?
Key: N

Exercise: Thanks! And O=C(O)CN1CC[C@]23CCN(CC4CC4)[C@H](Cc4ccc(O)cc42)[C@@H]3C1 ?
Key: N

Exercise: Thanks! And NC(=O)CN1C[C@H]2[C@H]3Cc4ccc(O)cc4[C@@]2(CCN3CC2CC2)CC1=O ?
Key: Y

Exercise: Thanks! And NC(=O)CN1CC[C@]23CCN(CC4CC4)[C@H](Cc4ccc(O)cc42)[C@@H]3C1 ?
Key: N

Exercise: Thanks! And COc1ccc(CN2CC[C@]34CCN(CC5CC5)[C@H](Cc5ccc(OC)cc53)[C@@H]4C2)cc1 ?
Key: N
